# MEASURED TARGET: HLA-A*02:19
# RUN DESCRIPTION: IEDB peptide-MHC binding, purified MHC/direct/fluorescence; filed as Kd, often an IC50 or EC50 that approximates it; bounds were set here for any values at or beyond the usual limits of such assays
# CONDITIONS: source organism: Cryptosporidium parvum Iowa II
Some sequences, each annotated with its measured Kd.

| SEQUENCE | Kd |
| --- | --- |
| DHIPIINTL | ≥ 20 µM |
| ILTRLALFF | ≥ 20 µM |

* * *

# MEASURED TARGET: HLA-A*32:01
# RUN DESCRIPTION: IEDB peptide-MHC binding, purified MHC/competitive/radioactivity; filed as Kd, often an IC50 or EC50 that approximates it; bounds were set here for any values at or beyond the usual limits of such assays
# CONDITIONS: source organism: Vaccinia virus WR
pKd: −log10 of the molar value.
Outcome: Yes for pKd of at least 8; No for anything lower.

| SEQUENCE | CLASS LABEL |
| --- | --- |
| LYRPNIPLK | No |
| KLLSHFYPA | No |
| MTDEQIYAF | No |
| SVMNFIPII | Yes |
| LIITKVFSF | No |
| KIDNYVVKF | No |
| RNKLSYRNK | No |
| TLWAIINTI | Yes |
| KQYKFYNQI | No |

* * *

# MEASURED TARGET: HLA-A*03:01
# RUN DESCRIPTION: IEDB peptide-MHC binding, purified MHC/competitive/radioactivity; filed as Kd, often an IC50 or EC50 that approximates it; bounds were set here for any values at or beyond the usual limits of such assays
# CONDITIONS: source organism: Vaccinia virus WR
pKd: −log10 of the molar value.

| SEQUENCE | MEASURED TARGET | QUALIFIER SIGN | pKd |
| --- | --- | --- | --- |
| DTDIFSPENK | HLA-A*03:01 | = | 5.23 |
| QLVFNSISAR | HLA-A*03:01 | = | 6.52 |
| AITDNGPMPY | HLA-A*03:01 | = | 6.60 |
| TTYMDTFFR | HLA-A*03:01 | = | 7.98 |
| TLNHVLALKY | HLA-A*03:01 | = | 6.77 |
| YVEKEENMDK | HLA-A*03:01 | ≤ | 4.15 |
| TFRERYSYK | HLA-A*03:01 | = | 7.13 |
| STQQNKLVIR | HLA-A*03:01 | = | 4.75 |
| AFDAPTLYVK | HLA-A*03:01 | = | 5.64 |
| NVPERQLILR | HLA-A*03:01 | = | 4.73 |
| VAGTGVQFY | HLA-A*03:01 | = | 5.14 |

* * *

Some sequences, each annotated with its measured pKd.
# MEASURED TARGET: HLA-A*02:12
# RUN DESCRIPTION: IEDB peptide-MHC binding, purified MHC/direct/fluorescence; filed as Kd, often an IC50 or EC50 that approximates it; bounds were set here for any values at or beyond the usual limits of such assays
# CONDITIONS: source organism: Cryptosporidium parvum Iowa II
pKd: −log10 of the molar value.

| SEQUENCE | MEASURED TARGET | pKd |
| --- | --- | --- |
| ILTRLALFF | HLA-A*02:12 | ≤ 4.70 |
| DHIPIINTL | HLA-A*02:12 | ≤ 4.70 |
